# RUN DESCRIPTION: chemical genetic growth profiling, strain panel (AID 1159580);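 note: tested at 20 µM; growth read once vehicle control cultures reached saturation at 30 °C; 1 = growth at the plate median or of vehicle wells; lower values mean less growth of the strain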
# EXPERIMENTAL SETUP: S. cerevisiae deletion strains, growth OD, locus YDR069C, strain doa4, stronger effect = lower value
Out of some 5,500 compounds screened, about 2,000 (36%) were called active. Another 18% or so got no clear call; they are omitted. The list shows a part of the results.
METRIC NAME: normalized growth
// print number alone

Query string: Need normalized growth of `Oc1ccc(/C=C/c2cc(O)cc(O)c2)cc1` , thanks.
Result string: 0.988

Query string: Need normalized growth of `CC1=C(/C=C/C(C)=C/C=C/C(C)=C/CO)C(C)(C)CCC1` , thanks.
Result string: 1.04

Query string: Need normalized growth of NC(=O)c1cc[n+](CC2=C(C(=O)O)N3C(=O)C(NC(=O)C(c4ccccc4)S(=O)(=O)[O-])C3SC2)cc1 (stereo not given) , thanks.
Result string: 0.98

Query string: Need normalized growth of `CC1=C(/C=C/C(C)=C/C=C/C(C)=C/C(=O)O)C(C)(C)CCC1` , thanks.
Result string: 0.979

Query string: Need normalized growth of `CC1=C(/C=C/C(C)=C/C=C/C(C)=C\C(=O)O)C(C)(C)CCC1` , thanks.
Result string: 0.967

###

# RUN DESCRIPTION: chemical genetic growth profiling, strain panel (AID 1159580);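 note: tested at 20 µM; growth read once vehicle control cultures reached saturation at 30 °C; 1 = growth at the plate median or of vehicle wells; lower values mean less growth of the strain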
# EXPERIMENTAL SETUP: S. cerevisiae deletion strains, growth OD, locus YER111C, strain swi4, stronger effect = lower value
Screen size: about 5,500 compounds; about 2,000 (36%) were called active. Roughly 18% stayed inconclusive and do not appear here. This is one part of the list.
Exam item: assign TRUE to entries whose normalized growth is below 1 and FALSE to entries at or above 1. Note that a value of exactly 1 receives FALSE.

Query string: Strictly below 1: is that where normalized growth of C#C[C@]1(O)CCC2C3CCc4cc(OC)ccc4C3CC[C@@]21C (some centres undefined) sits?
Result string: TRUE

Query string: Strictly below 1: is that where normalized growth of C=CCN1CC[C@]23c4c5ccc(O)c4OC2C(=O)CC[C@@]3(O)[C@H]1C5 (some centres undefined) sits?
Result string: TRUE

Query string: Strictly below 1: is that where normalized growth of `CCCN(CCC)CCc1cccc2c1CC(=O)N2` sits?
Result string: TRUE

Query string: Strictly below 1: is that where normalized growth of CC[C@@H](C(=O)[C@@H](C)[C@@H](O)[C@H](C)[C@@H]1O[C@@H]([C@@H](CC)C(=O)O)CC[C@@H]1C)[C@H]1OC2(C=C[C@@H](O)[C@]3(CC[C@@](C)([C@H]4CC[C@](O)(CC)[C@H](C)O4)O3)O2)[C@H](C)C[C@@H]1C (some centres undefined) sits?
Result string: TRUE

Query string: Strictly below 1: is that where normalized growth of CC1(C)CC2C1CCC1(C)OC1CCC2(C)O (centres undefined) sits?
Result string: FALSE

Query string: Strictly below 1: is that where normalized growth of `c1cc2c(cc1[C@H]1OC[C@H]3[C@@H]1CO[C@H]3c1ccc3c(c1)OCO3)OCO2` sits?
Result string: TRUE

###

# RUN DESCRIPTION: chemical genetic growth profiling, strain panel (AID 1159580);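 note: tested at 20 µM; growth read once vehicle control cultures reached saturation at 30 °C; 1 = growth at the plate median or of vehicle wells; lower values mean less growth of the strain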
# EXPERIMENTAL SETUP: S. cerevisiae deletion strains, growth OD, locus YNL298W, strain CLA4, stronger effect = lower value
About 2,000 (36%) of roughly 5,500 compounds were called active. Not shown: some 18% with an inconclusive outcome. The list shows a part of the results.
METRIC NAME: normalized growth
// print number alone

Query string: Need normalized growth of O=C(O)CCCCCCCCCCCCC1C=CCC1 (stereo not given) , thanks.
Result string: 0.944

Query string: Need normalized growth of C=CCN1CC[C@]23c4c5ccc(O)c4OC2C(=O)CC[C@@]3(O)[C@H]1C5 (stereo not given in full) , thanks.
Result string: 1.01

Query string: Need normalized growth of `O=C(O)c1cc(=O)c(O)c2c(O)c(O)ccc2c1` , thanks.
Result string: 1.01

Query string: Need normalized growth of CC[C@@H](C(=O)O)[C@@H]1O[C@@H]([C@@H](C)[C@H](O)[C@H](C)C(=O)[C@H](CC)[C@H]2O[C@]3(C=C[C@@H](O)[C@]4(CC[C@@](C)(C5CC[C@](O)(CC)[C@H](C)O5)O4)O3)[C@H](C)C[C@@H]2C)[C@@H](C)C[C@H]1C (stereo not given in full) , thanks.
Result string: 0.111

Query string: Need normalized growth of `O=C(O)c1cc(O)c(O)c(O)c1` , thanks.
Result string: 1.01

Query string: Need normalized growth of O=C(O)CCCCC1SCC2NC(=O)NC21 (stereo not given) , thanks.
Result string: 1

Query string: Need normalized growth of `COc1cc(C(=O)O)cc(OC)c1O` , thanks.
Result string: 0.994

Query string: Need normalized growth of CCOC(=O)CCCCCCCCCCCCC1C=CCC1 (stereo not given) , thanks.
Result string: 0.0648

Query string: Need normalized growth of `CC1=C(/C=C/C(C)=C/C=C/C(C)=C/CO)C(C)(C)CCC1` , thanks.
Result string: 1.01

Query string: Need normalized growth of `CC1=C(/C=C/C(C)=C/C=C/C(C)=C/C(=O)O)C(C)(C)CCC1` , thanks.
Result string: 1.03
